Origin of values: patent US6069240A

The following molecules are listed with their measured IC50 values.
test system: Drosophila dnc encoded PDEs; assay: Inhibition and kinetics of dnc encoded PDEs; type: biochemical; conditions: dnc gene product
reported_endpoint: IC50 (mM)

- molecule: "CCCCOc1cc(CC2CNC(=O)N2)ccc1OC (stereo not drawn)"
  data_value: 1
- molecule: "COc1ccc(C2CNC(=O)C2)cc1OC1CCCC1 (stereo not drawn)"
  data_value: 1

---

molecular target: UniProt:Q13946; experiment: Phosphodiesterase activity of 10DAB yeast extract expressing human cDNA (kinetics, inhibitor sensitivity)
Sequence (Q13946 with tags, fused parts or gaps): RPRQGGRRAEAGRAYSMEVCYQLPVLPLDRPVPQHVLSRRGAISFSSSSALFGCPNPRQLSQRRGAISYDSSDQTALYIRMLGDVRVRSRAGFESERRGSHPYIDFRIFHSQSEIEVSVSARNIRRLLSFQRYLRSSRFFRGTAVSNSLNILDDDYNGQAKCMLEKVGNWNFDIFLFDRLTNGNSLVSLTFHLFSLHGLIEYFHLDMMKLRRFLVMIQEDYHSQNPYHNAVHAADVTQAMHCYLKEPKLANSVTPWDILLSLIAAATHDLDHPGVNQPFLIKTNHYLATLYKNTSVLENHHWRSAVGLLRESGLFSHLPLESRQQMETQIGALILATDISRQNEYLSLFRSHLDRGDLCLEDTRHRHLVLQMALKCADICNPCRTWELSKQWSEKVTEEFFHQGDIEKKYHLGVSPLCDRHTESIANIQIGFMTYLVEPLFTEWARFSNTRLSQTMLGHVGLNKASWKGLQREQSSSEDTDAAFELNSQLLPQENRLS
The following molecules are listed with their measured EC50 values.
reported_endpoint: EC50

- molecule: "COc1ccc(C2CNC(=O)C2)cc1OC1CCCC1 (stereo not shown)"
  data_value: "> 300 µM"
- molecule: "CCCCOc1cc(CC2CNC(=O)N2)ccc1OC (stereo not shown)"
  data_value: "> 300 µM"
- molecule: "Cc1[nH]c(=O)c(C#N)cc1-c1ccncc1"
  data_value: "30 µM"
- molecule: "Nc1nc2c(ncn2[C@@H]2O[C@@H]3COP(=O)(O)O[C@H]3[C@H]2O)c(=O)[nH]1"
  data_value: "> 300 µM"

---

target: dnc (plasmid pADDROSC, full-length) (Drosophila melanogaster); test: biochemical
Sequence (P12252 1-701 isoform P12252-3): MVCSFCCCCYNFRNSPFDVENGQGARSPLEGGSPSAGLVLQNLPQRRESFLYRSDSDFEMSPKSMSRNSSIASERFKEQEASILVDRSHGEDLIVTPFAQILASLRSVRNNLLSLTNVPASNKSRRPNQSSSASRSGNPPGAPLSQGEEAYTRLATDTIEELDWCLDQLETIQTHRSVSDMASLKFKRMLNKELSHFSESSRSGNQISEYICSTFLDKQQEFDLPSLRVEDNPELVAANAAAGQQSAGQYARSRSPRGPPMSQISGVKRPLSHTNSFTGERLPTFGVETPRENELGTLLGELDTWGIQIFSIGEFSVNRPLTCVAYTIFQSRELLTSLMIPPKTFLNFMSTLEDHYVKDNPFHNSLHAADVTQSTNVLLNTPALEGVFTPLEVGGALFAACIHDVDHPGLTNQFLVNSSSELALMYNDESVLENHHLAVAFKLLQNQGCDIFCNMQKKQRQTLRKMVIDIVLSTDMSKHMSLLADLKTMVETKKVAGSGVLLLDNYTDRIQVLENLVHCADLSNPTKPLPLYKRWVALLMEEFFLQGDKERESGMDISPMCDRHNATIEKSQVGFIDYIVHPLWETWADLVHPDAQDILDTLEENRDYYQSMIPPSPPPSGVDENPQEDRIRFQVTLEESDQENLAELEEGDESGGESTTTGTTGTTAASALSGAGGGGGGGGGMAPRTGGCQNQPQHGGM
pIC50: −log10 of the molar value.
reported_endpoint: pIC50

- compound: "COc1ccc(C2CNC(=O)C2)cc1OC1CCCC1 (stereo not shown) [Rolipram]"
  reported_endpoint: "pIC50"
  data_value: "< 3.13"

---

molecular target: DPDE4 (plasmid pADH72C) (Homo sapiens, UniProt Q07343); experiment: biochemical
Sequence (Q07343 whole entry): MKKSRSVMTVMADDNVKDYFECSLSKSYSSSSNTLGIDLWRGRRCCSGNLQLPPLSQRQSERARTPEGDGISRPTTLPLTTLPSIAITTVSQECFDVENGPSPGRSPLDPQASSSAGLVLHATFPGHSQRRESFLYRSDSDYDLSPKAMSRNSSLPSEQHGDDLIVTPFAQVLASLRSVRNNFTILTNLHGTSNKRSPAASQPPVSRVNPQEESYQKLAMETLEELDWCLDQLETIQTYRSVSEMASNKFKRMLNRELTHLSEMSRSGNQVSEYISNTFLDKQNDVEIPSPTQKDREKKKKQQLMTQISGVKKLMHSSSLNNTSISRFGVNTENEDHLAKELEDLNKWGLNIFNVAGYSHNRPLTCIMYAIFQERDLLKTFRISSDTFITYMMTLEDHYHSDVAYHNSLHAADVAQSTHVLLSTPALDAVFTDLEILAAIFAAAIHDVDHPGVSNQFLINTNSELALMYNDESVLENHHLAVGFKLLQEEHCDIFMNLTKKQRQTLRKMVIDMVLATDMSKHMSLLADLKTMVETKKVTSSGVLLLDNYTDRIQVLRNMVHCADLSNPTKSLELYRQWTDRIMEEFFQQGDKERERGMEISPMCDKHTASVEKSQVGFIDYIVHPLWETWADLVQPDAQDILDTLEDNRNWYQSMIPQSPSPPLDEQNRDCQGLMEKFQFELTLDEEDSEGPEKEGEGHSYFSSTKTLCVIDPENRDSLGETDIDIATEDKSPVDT
pIC50: −log10 of the molar value.
The following compounds are listed with their measured pIC50 values.
reported_endpoint: pIC50

- line_notation: "CC(C)Cn1c(=O)n(C)c(=O)c2[nH]cnc21"
  reported_endpoint: "pIC50"
  bound_operator: "="
  data_value: 4.96
- line_notation: "Nc1nc2c(ncn2[C@@H]2O[C@@H]3COP(=O)(O)O[C@H]3[C@H]2O)c(=O)[nH]1"
  reported_endpoint: "pIC50"
  bound_operator: "<"
  data_value: 3.00

---

The following compounds are listed with their measured pIC50 values.
target: UniProtKB P12252; assay: biochemical; settings: read-out: IC50
pIC50: −log10 of the molar value.

- compound: "Nc1nc2c(ncn2[C@@H]2O[C@@H]3COP(=O)(O)O[C@H]3[C@H]2O)c(=O)[nH]1 [cGMP]"
  bound_operator: "<"
  pIC50: 3.00
- compound: "CC(C)Cn1c(=O)n(C)c(=O)c2[nH]cnc21 [IBMX]"
  bound_operator: "="
  pIC50: 4.92
- compound: "CCCOc1ccccc1-c1nc2nn[nH]c2c(=O)[nH]1 [Zaprinast]"
  bound_operator: "="
  pIC50: 4.24
- compound: "Cc1[nH]c(=O)c(C#N)cc1-c1ccncc1 [Milrinone]"
  bound_operator: "<"
  pIC50: 3.00
- compound: "CN(C(=O)CCCOc1ccc2[nH]c(=O)ccc2c1)C1CCCCC1 [Cilostamide]"
  bound_operator: "<"
  pIC50: 3.00
- compound: "CCCCn1c(=O)c2c(ncn2CC(C)=O)n(CCCC)c1=O [Denbufylline]"
  bound_operator: "="
  pIC50: 5.52

---

system: DPDE2 (plasmid pADH46R, cDNA truncated at 5' end); conditions: 1 μM 3H cAMP, SD in parentheses
reported_endpoint: log10 IC50 (log10 of the value in µM)

- molecule: "CCCCn1c(=O)c2c(ncn2CC(C)=O)n(CCCC)c1=O"
  log10 IC50: -0.66
- molecule: "COc1ccc(C2CNC(=O)C2)cc1OC1CCCC1 (centres unmarked)"
  log10 IC50: -0.30
- molecule: "CCCOc1ccccc1-c1nc2nn[nH]c2c(=O)[nH]1"
  log10 IC50: 2.08
- molecule: "CC(C)Cn1c(=O)n(C)c(=O)c2[nH]cnc21"
  log10 IC50: 0.97
- molecule: "Cc1[nH]c(=O)c(C#N)cc1-c1ccncc1"
  log10 IC50: 1.77
- molecule: "CN(C(=O)CCCOc1ccc2[nH]c(=O)ccc2c1)C1CCCCC1 [Cilostamide]"
  log10 IC50: 2.15
- molecule: "COCc1nc2c([nH]1)c(=O)n(C)c(=O)n2CC(C)C"
  log10 IC50: 2.34
